Reference for the values: PubChem BioAssay AID372

Biological target: Gag-Pol polyprotein (Human immunodeficiency virus type 1 group M subtype B (isolate HXB2)) (UniProt P04585)
Assay: RNase H inhibition, HIV 1 Gag Pol polyprotein, FRET biochemical assay, screening (AID 372)
Details: HIV-1 RT RNase H, FRET RNA/DNA substrate fluorescence; at 10 µM; stronger effect = higher value
The campaign covered roughly 100,000 compounds. About 770 (0.77%) were called active. The sample as a whole holds a higher share of actives than the screen did.
A collection of compounds and their measured inhibition
# output: bare number, implied unit %

The examples below pair each entry with its known result.
| Given smiles | inhibition, % |
| --- | --- |
| COc1ccc2ccccc2c1/C=C1/C(=O)NC(=O)N(Cc2ccco2)C1=O | 50 |
| COc1cc(N2Cc3ccccc3C2)ccc1/C=C1\C(=O)NC(=O)N(Cc2ccco2)C1=O | 51 |
| O=C1NC(=O)N(Cc2ccco2)C(=O)/C1=C\c1cn(Cc2ccc(Cl)cc2)c2ccccc12 | 37 |

Query (compound): CS(=O)(=O)N(CC(=O)N1CCCC1)c1cccc(Cl)c1 ; field requested: inhibition 6
